# solubility change mitosis (log2) values compiled below
- System: HeLa Kyoto;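 further: synchronized HeLa Kyoto cells (double thymidine block for G1/S, nocodazole release for mitosis), protein amounts in NP-40 versus SDS lysates quantified by mass spectrometry, three biological replicates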
- EXPERIMENT SUMMARY: solubility change mitosis vs G1/S (difference of NP-40 vs SDS log2 ratios) (log2 ratio difference); higher = more soluble in mitosis
METRIC NAME: solubility change mitosis (log2)

| SEQUENCE STRING | ASSAYED TARGET | REPORTED VALUE |
| --- | --- | --- |
| METQLSNGPTCNNTANGPTTINNNCSSPVDSGNTEDSKTNLIVNYLPQNMTQEELKSLFGSIGEIESCKLVRDKITGQSLGYGFVNYIDPKDAEKAINTLNGLRLQTKTIKVSYARPSSASIRDANLYVSGLPKTMTQKELEQLFSQYGRIITSRILVDQVTGISRGVGFIRFDKRIEAEEAIKGLNGQKPPGATEPITVKFANNPSQKTNQAILSQLYQSPNRRYPGPLAQQAQRFRLDNLLNMAYGVKRFSPMTIDGMTSLAGINIPGHPGTGWCIFVYNLAPDADESILWQMFGPFGAVTNVKVIRDFNTNKCKGFGFVTMTNYDEAAMAIASLNGYRLGDRVLQVSFKTNKTHKA [ELAVL2] | HeLa Kyoto | -0.0286 |
| MVDREQLVQKARLAEQAERYDDMAAAMKNVTELNEPLSNEERNLLSVAYKNVVGARRSSWRVISSIEQKTSADGNEKKIEMVRAYREKIEKELEAVCQDVLSLLDNYLIKNCSETQYESKVFYLKMKGDYYRYLAEVATGEKRATVVESSEKAYSEAHEISKEHMQPTHPIRLGLALNYSVFYYEIQNAPEQACHLAKTAFDDAIAELDTLNEDSYKDSTLIMQLLRDNLTLWTSDQQDDDGGEGNN [YWHAG] | HeLa Kyoto | 0.206 |
| MAQLGAVVAVASSFFCASLFSAVHKIEEGHIGVYYRGGALLTSTSGPGFHLMLPFITSYKSVQTTLQTDEVKNVPCGTSGGVMIYFDRIEVVNFLVPNAVYDIVKNYTADYDKALIFNKIHHELNQFCSVHTLQEVYIELFDQIDENLKLALQQDLTSMAPGLVIQAVRVTKPNIPEAIRRNYELMESEKTKLLIAAQKQKVVEKEAETERKKALIEAEKVAQVAEITYGQKVMEKETEKKISEIEDAAFLAREKAKADAECYTAMKIAEANKLKLTPEYLQLMKYKAIASNSKIYFGKDIPNMFMDSAGSVSKQFEGLADKLSFGLEDEPLETATKEN [ERLIN2] | HeLa Kyoto | -0.0221 |
| MDRSAEFRKWKAQCLSKADLSRKGSVDEDVVELVQFLNMRDQFFTTSSCAGRILLLDRGINGFEVQKQNCCWLLVTHKLCVKDDVIVALKKANGDATLKFEPFVLHVQCRQLQDAQILHSMAIDSGFRNSGITVGKRGKTMLAVRSTHGLEVPLSHKGKLMVTEEYIDFLLNVANQKMEENKKRIERFYNCLQHALERETMTNLHPKIKEKNNSSYIHKKKRNPEKTRAQCITKESDEELENDDDDDLGINVTIFPEDY [TYW3] | HeLa Kyoto | -0.194 |
| MNALLEQKEQQERLREAAALGDIREVQKLVESGVDVNSQNEVNGWTCLHWACKRNHGQVVSYLLKSGADKEILTTKGEMPVQLTSRREIRKIMGVEEEDDDDDDDDNLPQLKKESELPFVPNYLANPAFPFIYTPTAEDSAQMQNGGPSTPPASPPADGSPPLLPPGEPPLLGTFPRDHTSLALVQNGDVSAPSAILRTPESTKPGPVCQPPVSQSRSLFSSVPSKPPMSLEPQNGTYAGPAPAFQPFFFTGAFPFNMQELVLKVRIQNPSLRENDFIEIELDRQELTYQELLRVCCCELGVNPDQVEKIRKLPNTLLRKDKDVARLQDFQELELVLMISENNFLFRNAASTLTERPCYNRRASKLTY [ANKRD40] | HeLa Kyoto | -0.00743 |
| MGKGDPNKPRGKMSSYAFFVQTCREEHKKKHPDSSVNFAEFSKKCSERWKTMSAKEKSKFEDMAKSDKARYDREMKNYVPPKGDKKGKKKDPNAPKRPPSAFFLFCSEHRPKIKSEHPGLSIGDTAKKLGEMWSEQSAKDKQPYEQKAAKLKEKYEKDIAAYRAKGKSEAGKKGPGRPTGSKKKNEPEDEEEEEEEEDEDEEEEDEDEE [HMGB2] | HeLa Kyoto | 0.338 |
| MSSTQFNKGPSYGLSAEVKNRLLSKYDPQKEAELRTWIEGLTGLSIGPDFQKGLKDGTILCTLMNKLQPGSVPKINRSMQNWHQLENLSNFIKAMVSYGMNPVDLFEANDLFESGNMTQVQVSLLALAGKAKTKGLQSGVDIGVKYSEKQERNFDDATMKAGQCVIGLQMGTNKCASQSGMTAYGTRRHLYDPKNHILPPMDHSTISLQMGTNKCASQVGMTAPGTRRHIYDTKLGTDKCDNSSMSLQMGYTQGANQSGQVFGLGRQIYDPKYCPQGTVADGAPSGTGDCPDPGEVPEYPPYYQEEAGY [CNN2] | HeLa Kyoto | -0.0021 |
| MTDDKDVLRDVWFGRIPTCFTLYQDEITEREAEPYYLLLPRVSYLTLVTDKVKKHFQKVMRQEDISEIWFEYEGTPLKWHYPIGLLFDLLASSSALPWNITVHFKSFPEKDLLHCPSKDAIEAHFMSCMKEADALKHKSQVINEMQKKDHKQLWMGLQNDRFDQFWAINRKLMEYPAEENGFRYIPFRIYQTTTERPFIQKLFRPVAADGQLHTLGDLLKEVCPSAIDPEDGEKKNQVMIHGIEPMLETPLQWLSEHLSYPDNFLHISIIPQPTD [ATG5] | HeLa Kyoto | 0.0407 |
| MAQRGGARRPRGDRERLGSRLRALRPGREPRQSEPPAQRGPPPSGRPPARSTASGHDRPTRGAAAGARRPRMKKKTRRRSTRSEELTRSEELTLSEEATWSEEATQSEEATQGEEMNRSQEVTRDEESTRSEEVTREEMAAAGLTVTVTHSNEKHDLHVTSQQGSSEPVVQDLAQVVEEVIGVPQSFQKLIFKGKSLKEMETPLSALGIQDGCRVMLIGKKNSPQEEVELKKLKHLEKSVEKIADQLEELNKELTGIQQGFLPKDLQAEALCKLDRRVKATIEQFMKILEEIDTLILPENFKDSRLKRKGLVKKVQAFLAECDTVEQNICQETERLQSTNFALAE [BAG1] | HeLa Kyoto | 0.0327 |
